Measured target: Transcriptional activator protein LuxR (Vibrio fischeri (strain ATCC 700601 / ES114))
Sequence (P35327 whole entry): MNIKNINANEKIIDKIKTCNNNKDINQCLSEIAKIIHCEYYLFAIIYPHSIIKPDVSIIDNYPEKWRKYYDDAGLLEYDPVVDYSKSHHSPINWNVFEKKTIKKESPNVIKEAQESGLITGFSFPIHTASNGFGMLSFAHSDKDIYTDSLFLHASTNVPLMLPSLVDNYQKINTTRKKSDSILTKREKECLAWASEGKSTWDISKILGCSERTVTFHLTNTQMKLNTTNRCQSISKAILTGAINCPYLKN
Experiment summary: Antagonist activity at Vibrio fischeri ES114 LuxR receptor assessed as inhibition of OHHL-induced response by luciferase reporter gene assay
Assay readout: IC50 (nM)
Could you give me the number in nM? Just the number is fine.

Reference set, count: 8
O=C(COc1ccc(I)cc1)N[C@H]1CCOC1=O; 1900
CSc1ccc(CCC(=O)N[C@H]2CCOC2=O)cc1; 1700
Cc1ccc(CCC(=O)N[C@H]2CCOC2=O)cc1; 2200
O=C(CCc1ccc(Cl)cc1)N[C@H]1CCOC1=O; 970
CSc1cccc(CC(=O)N[C@H]2CCOC2=O)c1; 1500
CSc1ccc(CC(=O)N[C@H]2CCOC2=O)cc1; 2100
O=C(CCc1cccc([N+](=O)[O-])c1)N[C@H]1CCOC1=O; 880
COc1cccc(CC(=O)N[C@H]2CCOC2=O)c1; 2500

molecule "O=C(Cc1ccc2ccccc2c1)N[C@H]1CCOC1=O" , IC50 observed: 940

molecule "O=C(CCc1ccc(F)cc1)N[C@H]1CCOC1=O" , IC50 observed: 2700

molecule "O=C(CCc1cccc(Br)c1)N[C@H]1CCOC1=O" , IC50 observed: 530

molecule "Cc1cccc(CC(=O)N[C@H]2CCOC2=O)c1" , IC50 observed: 2000

molecule "O=C(Cc1cccc(C(F)(F)F)c1)N[C@H]1CCOC1=O" , IC50 observed: 1400

molecule "O=C(COc1cccc([N+](=O)[O-])c1)N[C@H]1CCOC1=O" , IC50 observed: 2400
